Provide the reported Fold change in RNA expression between the ON state and the OFF state of each item.
Test system: Renilla luciferase RNA
Test: Barcoded aptazyme variant library screen: un-cleaved Renilla luciferase RNA by barcode read counts, HEK293-T cells
Assay type: cell-based
Details: un-cleaved Renilla luciferase RNA, HEK293-T cells cultured with 1 mM theophylline (ON) over without theophylline (OFF); barcode read counts, triplicate
A bare number is not enough; add the unit after it.

Look over these answered cases.
{"columns": ["Molecule", "Experimental result"],
 "data": [
  ["RA042 (nucleic acid, expressed or natural sequence) DNA: GCGCGTCCTGGATTCGCGGAAACGCGTACATCCAAGAATACCAGCATCGTCTTGATGCCCTTGGAAGTCTGCTGACGAGTCCCAAATAGGACGAAACGCGC", "2.1 fold"],
  ["RA003 (nucleic acid, expressed or natural sequence) DNA: GCGCGTCCTGCGGAATACCAGCATCGTCTTGATGCCCTTGGAAGTCCGGATTCGCGGAAACGCGTACATCCAGCTGACGAGTCCCAAATAGGACGAAACGCGC", "5.5 fold"],
  ["RA026 (nucleic acid, expressed or natural sequence) DNA: GCGCGTCCTGGATTCGCGGAAACGCGTACATCCAGCTGACGAGTCCGAGAATACCAGCATCGTCTTGATGCCCTTGGAAGTCTCGCCAAATAGGACGAAACGCGC", "2.4 fold"]
]}

Okay, here is my list. What is Fold change in RNA expression between the ON state and the OFF state for each of these?
1. RA163 (nucleic acid, expressed or natural sequence) DNA: GCGCGTCCTGGATTCGCGGAAACGCGTACATCCAGCCGGAATACCAGCATCGTCTTGATGCCCTTGGAAGTCCGGCTGACGAGTCCCAAATAGGACGAAACGCGC
2. RA254 (nucleic acid, expressed or natural sequence) DNA: GCGCGTCCTGGATTCGCGGAAACGCGTACATCCAGCAGAATACCAGCATCGTCTTGATGCCCTTGGAAGTCTTGACGAGTCCCAAATAGGACGAAACGCGC
3. RA171 (nucleic acid, expressed or natural sequence) DNA: GCGCGTCCTGGATTCGCGGAAACGCGTACACGAGAATACCAGCATCGTCTTGATGCCCTTGGAAGTCTCGTCCAGCTGACGAGTCCCAAATAGGACGAAACGCGC
4. RA010 (nucleic acid, expressed or natural sequence) DNA: GCGCGTCCTGGACGAGAATACCAGCATCGTCTTGATGCCCTTGGAAGTCTCGTTCGCGGAAACGCGTACATCCAGCTGACGAGTCCCAAATAGGACGAAACGCGC
5. RA064 (nucleic acid, expressed or natural sequence) DNA: GCGCGTCCTGGATTCGCGGAAACGCGTACAGAATACCAGCATCGTCTTGATGCCCTTGGAAGTCTATCCAGCTGACGAGTCCCAAATAGGACGAAACGCGC
6. RA273 (nucleic acid, expressed or natural sequence) DNA: GCGCGTCCTGGATTCGCGGGAATACCAGCATCGTCTTGATGCCCTTGGAAGTCCGAAACGCGTACATCCAGCTGACGAGTCCCAAATAGGACGAAACGCGC

Key:
1. 1.3 fold
2. 1.1 fold
3. 1.3 fold
4. 3.6 fold
5. 1.9 fold
6. 1.0 fold
